Tested on: S. pyogenes IID 692
Experiment: Antibacterial spectra, MIC
Type: cell-based
Conditions: Streptococcus pyogenes, IID692
propertyName: MIC (µg/mL)
One number for each entry, in µg/mL.

Study these solved cases before continuing.
> print(dat)
                                   compound  unitdescriptor  reportedresult
1  CCNCC1CCN(c2c(F)cc3c(=O)c(C(=O)O)cn(C4CC4)c3c2OC)C1 (stereo not shown)           µg/mL            0.05
2  COc1c(N2C[C@@H](C)[C@H](N)C2)c(F)cc2c(=O)c(C(=O)O)cn(C3CC3)c12 (relative stereo)           µg/mL             0.1
3  CNCC1CCN(c2c(F)cc3c(=O)c(C(=O)O)cn(C4CC4)c3c2OC)C1 (stereo not shown)           µg/mL            0.05
4  COc1c(N2C[C@@H](N)[C@@H](C)C2)c(F)cc2c(=O)c(C(=O)O)cn(C3CC3)c12 (relative stereo)           µg/mL             0.1
5  COc1c(N2CCC(N)C2)c(F)cc2c(=O)c(C(=O)O)cn(C3CC3)c12 (stereo not shown)           µg/mL             0.1

Task: Recorded MIC for COc1c(N2CCC(N)C2)c(F)c(N)c2c(=O)c(C(=O)O)cn(C3CC3)c12 (stereo not shown) , please?
Result: 0.39

###

Tested on: P. cepacia GIFU 518
Test: Antibacterial spectra, MIC
Assay type: cell-based
Details: Burkholderia cepacia, GIFU518; 10^6 cells/ml; Gram -; read-out: MIC
Assignment: determine reported MIC for the given compounds.
Numbers only, in µg/mL.

> print(dat)
                                   compound  reportedresult
1  COc1c(N2CCNCC2)c(F)cc2c(=O)c(C(=O)O)cn(C3CC3)c12            0.78

Give one value of MIC per listed compound.
1. COc1c(N2CCN(C)CC2)c(F)cc2c(=O)c(C(=O)O)cn(C3CC3)c12
2. COc1c(N2CCNCC2)c(F)c(N)c2c(=O)c(C(=O)O)cn(C3CC3)c12
3. CCOc1c(N2CCNCC2)c(F)cc2c(=O)c(C(=O)O)cn(C3CC3)c12
4. CNCC1CCN(c2c(F)cc3c(=O)c(C(=O)O)cn(C4CC4)c3c2OC)C1 (stereo not drawn)

Result:
1. 1.56
2. 1.56
3. 3.13
4. 1.56

Task: Recorded MIC for COc1c(N2CCC(N)C2)c(F)c(N)c2c(=O)c(C(=O)O)cn(C3CC3)c12 (stereo not drawn) , please?
Result: 1.56

###

System: C. perfringens KYA 13123
Experiment: microbe, parasite or virus in culture
Type: cell-based
Details: Clostridium perfringens, KYA13123
propertyName: MIC

Study these solved cases before continuing.
> print(dat)
                                   compound  reportedresult
1  COc1c(N2CCN(C)CC2)c(F)cc2c(=O)c(C(=O)O)cn(C3CC3)c12      0.39 µg/mL
2  COc1c(N2CCNCC2)c(F)cc2c(=O)c(C(=O)O)cn(C3CC3)c12      0.39 µg/mL
3  COc1c(N2CCC(CN)C2)c(F)cc2c(=O)c(C(=O)O)cn(C3CC3)c12 (stereo not shown)       0.2 µg/mL
4  COc1c(N2CCNCC2)c(F)c(N)c2c(=O)c(C(=O)O)cn(C3CC3)c12      3.13 µg/mL

Give one value of MIC per listed compound.
1. CNCC1CCN(c2c(F)cc3c(=O)c(C(=O)O)cn(C4CC4)c3c2OC)C1 (stereo not shown)
2. CCOc1c(N2CCNCC2)c(F)cc2c(=O)c(C(=O)O)cn(C3CC3)c12

Result:
1. 0.2 µg/mL
2. 1.56 µg/mL

Task: Field: MIC (C. perfringens KYA 13123). Entry: CCNCC1CCN(c2c(F)cc3c(=O)c(C(=O)O)cn(C4CC4)c3c2OC)C1 (stereo not shown)
Result: ≤ 0.05 µg/mL

###

Test system: B. distasonis 8503
Assay: Antibacterial spectra, MIC
Format: cell-based
Details: Parabacteroides distasonis, 10^6 cells/ml, Gram -, read-out: MIC
propertyName: MIC (µg/mL)
Numbers only, in µg/mL.

Study these solved cases before continuing.
> print(dat)
                                   molecule  unitdescriptor  reportedresult
1  COc1c(N2CCNCC2)c(F)cc2c(=O)c(C(=O)O)cn(C3CC3)c12 [Exp. 1]           µg/mL            1.56
2  CCOc1c(N2CCNCC2)c(F)cc2c(=O)c(C(=O)O)cn(C3CC3)c12 [Exp. 18]           µg/mL            12.5
3  COc1c(N2CCC(N)C2)c(F)c(N)c2c(=O)c(C(=O)O)cn(C3CC3)c12 (stereo not shown) [Exp. 11]           µg/mL            12.5

Note: attention shifts to another entry.
Task: Field: MIC (B. distasonis 8503). Entry: COc1c(N2CCNCC2)c(F)c(N)c2c(=O)c(C(=O)O)cn(C3CC3)c12 [Exp. 10]
Result: 6.25

###

Tested on: Alcaligenes faecalis 0114002
Test: Antibacterial spectra, MIC
Assay type: cell-based
propertyName: MIC (mg/L)
Answers are plain numbers, in mg/L.

> print(dat)
                                   compound  propertyname  reportedresult
1  COc1c(N2CCC(CN)C2)c(F)cc2c(=O)c(C(=O)O)cn(C3CC3)c12 (stereo not drawn) [Exp. 7]           MIC            0.39
2  COc1c(N2CCC(N)C2)c(F)cc2c(=O)c(C(=O)O)cn(C3CC3)c12 (stereo not drawn) [Exp. 4]           MIC            0.39
3  COc1c(N2CCNCC2)c(F)c(N)c2c(=O)c(C(=O)O)cn(C3CC3)c12 [Exp. 10]           MIC            0.78
4  COc1c(N2C[C@@H](N)[C@@H](C)C2)c(F)cc2c(=O)c(C(=O)O)cn(C3CC3)c12 (relative stereo) [Exp. 5]           MIC             0.2
5  COc1c(N2CCN(C)CC2)c(F)cc2c(=O)c(C(=O)O)cn(C3CC3)c12 [Exp. 2]           MIC            0.39

Give one value of MIC per listed compound.
1. COc1c(N2C[C@@H](C)[C@H](N)C2)c(F)cc2c(=O)c(C(=O)O)cn(C3CC3)c12 (relative stereo) [Exp. 6]
2. CCNCC1CCN(c2c(F)cc3c(=O)c(C(=O)O)cn(C4CC4)c3c2OC)C1 (stereo not drawn) [Exp. 9]

Result:
0.2
0.78

Give one value of MIC per listed compound.
1. COc1c(N2CCC(N)C2)c(F)c(N)c2c(=O)c(C(=O)O)cn(C3CC3)c12 (stereo not drawn) [Exp. 11]
2. COc1c(N2CCNC(C)C2)c(F)cc2c(=O)c(C(=O)O)cn(C3CC3)c12 (stereo not drawn) [Exp. 3]

Result:
1: 0.78; 2: 0.39

###

Tested on: B. thetaiotaomicron (0661)
Assay: Antibacterial spectra, MIC
Assay type: cell-based
Conditions: Bacteroides thetaiotaomicron; 10^6 cells/ml; Gram -; read-out: MIC
Assignment: determine reported MIC for the given molecules.
Provide a numeric answer, followed by its unit.

> print(dat)
                                   molecule  reportedresult
1  COc1c(N2CCC(N)C2)c(F)c(N)c2c(=O)c(C(=O)O)cn(C3CC3)c12 (centres unmarked) [Exp. 11]      1.56 µg/mL
2  COc1c(N2CCNCC2)c(F)c(N)c2c(=O)c(C(=O)O)cn(C3CC3)c12 [Exp. 10]      6.25 µg/mL
3  COc1c(N2CCNCC2)c(F)cc2c(=O)c(C(=O)O)cn(C3CC3)c12 [Exp. 1]      1.56 µg/mL
4  COc1c(N2CCN(C)CC2)c(F)cc2c(=O)c(C(=O)O)cn(C3CC3)c12 [Exp. 2]      1.56 µg/mL

Note: attention shifts to another entry.
Task: Recorded MIC for CCOc1c(N2CCNCC2)c(F)cc2c(=O)c(C(=O)O)cn(C3CC3)c12 [Exp. 18] , please?
Result: 12.5 µg/mL

###

Assignment: determine reported MIC for the given molecules.
System: K. pneumoniae 1-220S
Assay: Antibacterial spectra, MIC
Format: cell-based
Conditions: Klebsiella pneumoniae, 1220S
Answers are plain numbers, in mg/L.

> print(dat)
                                   molecule  unitdescriptor  reportedresult
1  CCNCC1CCN(c2c(F)cc3c(=O)c(C(=O)O)cn(C4CC4)c3c2OC)C1 (stereo not shown)            mg/L             0.1
2  COc1c(N2CCNCC2)c(F)c(N)c2c(=O)c(C(=O)O)cn(C3CC3)c12            mg/L             0.2

Give one value of MIC per listed molecule.
1. COc1c(N2C[C@@H](C)[C@H](N)C2)c(F)cc2c(=O)c(C(=O)O)cn(C3CC3)c12 (relative stereo)
2. COc1c(N2C[C@@H](N)[C@@H](C)C2)c(F)cc2c(=O)c(C(=O)O)cn(C3CC3)c12 (relative stereo)

Result:
[0.05, 0.05]
